biological target: SpAbp1-D1; experiment: SPOT peptide array binding signal intensity (averaged, normalized) (arbitrary units (background-subtracted, floor 0; scale differs between SH3 domains)); higher = stronger binding of the SH3 domain to the peptide
Measurement label: SPOT peptide array binding signal intensity

| Binder | Value reported |
| --- | --- |
| DDEDVPPQLPTRTKS | ≤ 0 |
| STPQTMRQAPKRPDA | ≤ 0 |
| DTIDNVKSKIQDKEG | ≤ 0 |
